assay: xn = mol fraction of the nth substance listed; conditions: 318.15 K; 101 kPa; Liquid; Vibrating tube method; x1 = 0.7
± gives the expanded uncertainty stated by the source.
measured-parameter: mass density
Write the quantity with the unit trailing the number.

# compound, mass density
rows = [
    ("COC(=O)CCCCl [methyl 4-chlorobutanoate] + Cc1ccc(C)cc1", "1017.19 ± 0.14 kg/m3"),
    ("COC(=O)CCCCl [methyl 4-chlorobutanoate] + Cc1ccccc1C", "1023.83 ± 0.14 kg/m3"),
    ("COC(=O)CCCCl [methyl 4-chlorobutanoate] + c1ccccc1", "1036.94 ± 0.13 kg/m3"),
]

COC(=O)CCCCl [methyl 4-chlorobutanoate] + Cc1ccccc1 yielded mass density of 1026.57 ± 0.14 kg/m3

----------
Below is a list of entries, each paired with its recorded mass density value.
details: 318.15 K; 101 kPa; Liquid; Vibrating tube method
Reply numerically in kg/m3, unit not repeated.

Some solved cases for reference:
# compound, measurement-unit, endpoint-value
rows = [
    ("Cc1cccc(C)c1 [1,3-dimethylbenzene]", "kg/m3", 842.49),
    ("Cc1ccccc1 [toluene]", "kg/m3", 843.4),
    ("c1ccccc1 [benzene]", "kg/m3", 852.08),
    ("COC(=O)CCCCl [methyl 4-chlorobutanoate]", "kg/m3", 1094.13),
    ("Cc1ccccc1C [1,2-dimethylbenzene]", "kg/m3", 858.12),
]

Just so you know, measured mass density for Cc1ccc(C)cc1 [1,4-dimethylbenzene] came out at 839.2

----------
We begin with a simple list: items and their reported viscosity.
assay: xn = mol fraction of the nth substance listed; settings: 308.15 K; 101 kPa; Liquid; Capillary tube (Ostwald / Ubbelohde) method; x1 = 0.7
± gives the expanded uncertainty stated by the source.
Write the quantity with the unit trailing the number.

# compound, viscosity
records = [
    ("COC(=O)CCCCl [methyl 4-chlorobutanoate] + c1ccccc1", "0.99 ± 0.008 mPa·s"),
    ("COC(=O)CCCCl [methyl 4-chlorobutanoate] + Cc1ccccc1", "0.962 ± 0.008 mPa·s"),
    ("COC(=O)CCCCl [methyl 4-chlorobutanoate] + Cc1ccccc1C", "1.05 ± 0.009 mPa·s"),
]

Memo: COC(=O)CCCCl [methyl 4-chlorobutanoate] + Cc1ccc(C)cc1 , reported viscosity: 0.978 ± 0.008 mPa·s

----------
// reported viscosity for each item listed
experiment: xn = mol fraction of the nth substance listed; settings: 318.15 K; 101 kPa; Liquid; Capillary tube (Ostwald / Ubbelohde) method; x1 = 0.8
Enter your answer as a number in mPa·s; do not include the unit.

For reference, reported viscosity for COC(=O)CCCCl [methyl 4-chlorobutanoate] + Cc1ccc(C)cc1 stands at 0.926

Record COC(=O)CCCCl [methyl 4-chlorobutanoate] + Cc1ccccc1C . Reported viscosity: 0.965

Value of viscosity reported for the compound COC(=O)CCCCl [methyl 4-chlorobutanoate] + Cc1ccccc1 is 0.913

// sample COC(=O)CCCCl [methyl 4-chlorobutanoate] + c1ccccc1 , its viscosity was 0.927

----------
settings: 308.15 K; 101 kPa; Liquid; Capillary tube (Ostwald / Ubbelohde) method
Below, each entry is listed alongside its reported viscosity.
Give the quantity in mPa·s, number only.

Field: example entries. Status: answers known.
# compound, measurement-unit, viscosity
data = [
    ("COC(=O)CCCCl [methyl 4-chlorobutanoate]", "mPa·s", 1.279),
    ("Cc1cccc(C)c1", "mPa·s", 0.524),
    ("Cc1ccccc1", "mPa·s", 0.499),
]

Documented viscosity of `Cc1ccccc1C` : 0.665

Value of viscosity reported for the compound `Cc1ccc(C)cc1` is 0.541

Form field viscosity, entry `c1ccccc1` : 0.533

----------
test: xn = mol fraction of the nth substance listed; conditions: 318.15 K; 101 kPa; Liquid; Vibrating tube method; x1 = 0.3
measured-parameter: mass density (kg/m3)
Value expressed in kg/m3; do not type the unit.

# annotated cases, reported mass density shown
# compound, measured-parameter, endpoint-value
records = [
    ("COC(=O)CCCCl [methyl 4-chlorobutanoate] + Cc1ccccc1C", "mass density", 929.03),
    ("COC(=O)CCCCl [methyl 4-chlorobutanoate] + c1ccccc1", "mass density", 941.13),
    ("COC(=O)CCCCl [methyl 4-chlorobutanoate] + Cc1ccc(C)cc1", "mass density", 915.3),
]

# mass density of COC(=O)CCCCl [methyl 4-chlorobutanoate] + Cc1ccccc1 = 926.77

----------
Overview of recorded viscosity for various compounds
experiment: xn = mol fraction of the nth substance listed; settings: 318.15 K; 101 kPa; Liquid; Capillary tube (Ostwald / Ubbelohde) method; x1 = 0.7
Just the number in mPa·s, nothing appended.

# compound, measured-parameter, endpoint-value
rows = [
    ("COC(=O)CCCCl [methyl 4-chlorobutanoate] + c1ccccc1", "viscosity", 0.853),
    ("COC(=O)CCCCl [methyl 4-chlorobutanoate] + Cc1ccc(C)cc1", "viscosity", 0.846),
    ("COC(=O)CCCCl [methyl 4-chlorobutanoate] + Cc1ccccc1C", "viscosity", 0.907),
]

Sure, the documented viscosity for COC(=O)CCCCl [methyl 4-chlorobutanoate] + Cc1ccccc1 is 0.831

----------
conditions: 298.15 K; 101 kPa; Liquid; Vibrating tube method
Each item that follows carries a reported mass density.
Response body: numeric value in kg/m3, unit text excluded.

Solved cases below.
# compound, endpoint-value
records = [
    ("Cc1ccccc1 [toluene]", 862.18),
    ("Cc1ccccc1C [1,2-dimethylbenzene]", 875.08),
    ("Cc1cccc(C)c1 [1,3-dimethylbenzene]", 859.83),
    ("Cc1ccc(C)cc1 [1,4-dimethylbenzene]", 856.68),
    ("COC(=O)CCCCl [methyl 4-chlorobutanoate]", 1116.24),
]

Record c1ccccc1 [benzene] , field mass density: 873.61

----------
assay: xn = mol fraction of the nth substance listed; conditions: 308.15 K; 101 kPa; Liquid; Vibrating tube method; x1 = 0.8
measured-parameter: mass density (kg/m3)
State just the number; it will be interpreted in kg/m3.

The following molecules have reported results that may help.
# molecule, measurement-unit, mass density
data = [
    ("COC(=O)CCCCl [methyl 4-chlorobutanoate] + c1ccccc1", "kg/m3", 1068.49),
    ("COC(=O)CCCCl [methyl 4-chlorobutanoate] + Cc1ccccc1", "kg/m3", 1060.54),
    ("COC(=O)CCCCl [methyl 4-chlorobutanoate] + Cc1ccc(C)cc1", "kg/m3", 1053.37),
]

The value of mass density measured for the molecule COC(=O)CCCCl [methyl 4-chlorobutanoate] + Cc1ccccc1C turned out to be 1058.13

----------
assay: xn = mol fraction of the nth substance listed; settings: 298.15 K; 101 kPa; Liquid; Vibrating tube method; x1 = 0.3
# mass density per record follows
The response must be a number in kg/m3 with no trailing unit.

# molecule, mass density [kg/m3]
data = [
    ("COC(=O)CCCCl [methyl 4-chlorobutanoate] + c1ccccc1", 962.99),
    ("COC(=O)CCCCl [methyl 4-chlorobutanoate] + Cc1ccccc1", 946.73),
    ("COC(=O)CCCCl [methyl 4-chlorobutanoate] + Cc1ccccc1C", 947.67),
]

Query molecule follows.
# mass density of COC(=O)CCCCl [methyl 4-chlorobutanoate] + Cc1ccc(C)cc1 = 934.33

----------
assay: xn = mol fraction of the nth substance listed; settings: 318.15 K; 101 kPa; Liquid; Capillary tube (Ostwald / Ubbelohde) method; x1 = 0.3
Items are presented alongside their recorded viscosity.
Express the result in mPa·s but write the number alone.

# compound, measurement-unit, viscosity
measured = [
    ("COC(=O)CCCCl [methyl 4-chlorobutanoate] + Cc1ccccc1C", "mPa·s", 0.707),
    ("COC(=O)CCCCl [methyl 4-chlorobutanoate] + c1ccccc1", "mPa·s", 0.601),
    ("COC(=O)CCCCl [methyl 4-chlorobutanoate] + Cc1ccc(C)cc1", "mPa·s", 0.6),
]

Moving on to the next compound.
For COC(=O)CCCCl [methyl 4-chlorobutanoate] + Cc1ccccc1 the compound record lists viscosity as 0.582

----------
assay: xn = mol fraction of the nth substance listed; conditions: 318.15 K; 101 kPa; Liquid; Vibrating tube method; x1 = 0.8
Form field: mass density (one value per entry).
Field format: number, assumed kg/m3, no unit text.

mass density for COC(=O)CCCCl [methyl 4-chlorobutanoate] + Cc1ccc(C)cc1 is 1042.71

Entry COC(=O)CCCCl [methyl 4-chlorobutanoate] + Cc1ccccc1C — recorded mass density = 1047.53

Entry COC(=O)CCCCl [methyl 4-chlorobutanoate] + Cc1ccccc1 ; mass density = 1049.74

Note to self: mass density recorded for COC(=O)CCCCl [methyl 4-chlorobutanoate] + c1ccccc1 was 1057.55
